Values from patent US20240287154A1

Provide the reported EC50 of each item.
Molecular target: human MC3R (Homo sapiens)
Sequence (P41968 whole entry): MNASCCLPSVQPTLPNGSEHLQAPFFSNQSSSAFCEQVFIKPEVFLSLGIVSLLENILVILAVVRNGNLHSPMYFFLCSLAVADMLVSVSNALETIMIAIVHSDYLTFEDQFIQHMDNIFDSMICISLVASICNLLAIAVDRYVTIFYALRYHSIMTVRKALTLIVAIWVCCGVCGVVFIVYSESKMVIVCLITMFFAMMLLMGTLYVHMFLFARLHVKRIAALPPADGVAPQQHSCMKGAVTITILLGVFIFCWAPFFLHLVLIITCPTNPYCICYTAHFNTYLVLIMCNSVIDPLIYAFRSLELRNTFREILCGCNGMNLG
Assay: Intracellular cAMP levels in live cells, MC3R agonist activity
Settings: cAMP split-luciferase reporter cell line stably expressing human MC3R; direct agonist effect, measurement window 1
Non-standard residues stand in square brackets, D forms with d. Residues, ends and D or L forms follow the SMILES beside them. Phe(4-Cl) = N[C@@H](Cc1ccc(Cl)cc1)C(=O)O; Nle = CCCC[C@H](N)C(=O)O
Report the figure in nM without appending any unit label.

# input In one line, give reported EC50 of the entry CCCC[C@H](NC(=O)[C@@H](NC(=O)[C@@H](N)Cc1ccc(O)cc1)C(C)C)C(=O)N[C@H](C)C(=O)N[C@@H](Cc1c[nH]cn1)C(=O)N[C@@H](Cc1ccccc1)C(=O)N[C@@H](CCCNC(=N)N)C(=O)N[C@H](Cc1c[nH]c2ccccc12)C(=O)N[C@@H](CC(=O)O)C(=O)N[C@@H](CCCNC(=N)N)C(=O)N[C@H](Cc1ccccc1)C(=O)NCC(=O)O [CTX-1127] (H-YV[Nle][dA]HFR[dW]DR[dF]G-OH) .
# output 2.5

# input Write down EC50 measured for item CCCC[C@H](NC(=O)[C@@H](NC(=O)[C@@H](N)Cc1ccc(O)cc1)C(C)C)C(=O)N[C@H](C)C(=O)N[C@@H](Cc1c[nH]cn1)C(=O)N[C@@H](Cc1ccccc1)C(=O)N[C@@H](CCCNC(=N)N)C(=O)N[C@H](Cc1c[nH]c2ccccc12)C(=O)N[C@@H](CC(=O)O)C(=O)N[C@H](CCCNC(=N)N)C(=O)N[C@@H](Cc1ccccc1)C(=O)NCC(=O)O [CTX-1126] (H-YV[Nle][dA]HFR[dW]D[dR]FG-OH)
# output 3

# input For the molecule CCCC[C@H](NC(=O)[C@@H](NC(=O)[C@@H](N)Cc1ccc(O)cc1)C(C)C)C(=O)N[C@H](C)C(=O)N[C@@H](Cc1c[nH]cn1)C(=O)N[C@@H](Cc1ccc(Cl)cc1)C(=O)N[C@@H](CCCNC(=N)N)C(=O)N[C@H](Cc1c[nH]c2ccccc12)C(=O)N[C@@H](CC(=O)O)C(=O)N[C@@H](CCCNC(=N)N)C(=O)N[C@@H](Cc1ccccc1)C(=O)NCC(=O)O [CTX-2121] (H-YV[Nle][dA]H[Phe(4-Cl)]R[dW]DRFG-OH) , report EC50.
# output 2.5
